Target: Cholesteryl ester transfer protein (Homo sapiens)
Sequence (P11597 whole entry): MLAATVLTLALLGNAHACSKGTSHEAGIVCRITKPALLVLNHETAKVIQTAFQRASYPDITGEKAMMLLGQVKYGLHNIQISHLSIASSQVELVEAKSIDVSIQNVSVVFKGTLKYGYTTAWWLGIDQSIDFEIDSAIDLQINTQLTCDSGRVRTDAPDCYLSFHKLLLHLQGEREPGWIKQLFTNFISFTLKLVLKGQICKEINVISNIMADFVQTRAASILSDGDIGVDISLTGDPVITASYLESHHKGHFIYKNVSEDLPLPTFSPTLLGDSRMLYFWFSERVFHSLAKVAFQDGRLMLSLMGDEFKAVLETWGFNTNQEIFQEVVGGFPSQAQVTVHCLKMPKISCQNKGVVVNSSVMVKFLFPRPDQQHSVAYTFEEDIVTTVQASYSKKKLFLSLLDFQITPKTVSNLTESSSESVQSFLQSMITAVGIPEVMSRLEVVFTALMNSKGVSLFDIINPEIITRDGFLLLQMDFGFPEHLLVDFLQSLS
Experiment: Inhibition of CETP assessed as cholesterol ester transfer after 4 hrs by microemulsion based fluorescence assay
pIC50: −log10 of the molar value.
Classification field: condition met = pIC50 at or over 6; condition not met = pIC50 under 6.

Compound	Qualitative label
CC1(C)Cc2nc(C3CCCC3)c(C(=O)c3ccc(C(F)(F)F)cc3)c(CCl)c2[C@@H](O)C1	condition not met
CCCCCc1c(C(=O)c2ccc(C(F)(F)F)cc2)c(C2CCCC2)nc2c1[C@@H](O)CC(C)(C)C2	condition not met
CC(C)c1c(C(=O)c2ccc(C(F)(F)F)cc2)c(C2CCCC2)nc2c1[C@@H](O)CC(C)(C)C2	condition met
CC1(C)Cc2nc(C3CCCC3)c(C(=O)c3ccc(C(F)(F)F)cc3)c(C3CC3)c2[C@@H](O)C1	condition not met
CCOC(=O)c1c(C(=O)c2ccc(C(F)(F)F)cc2)c(C2CCCC2)nc2c1[C@@H](O)CC(C)(C)C2	condition not met
O=C(c1ccc(C(F)(F)F)cc1)c1c(C2CCCC2)nc2c(c1C1CCCCC1)[C@@H](O)CC1(CCC1)C2	condition met
O[C@H]1CC2(CCC2)Cc2nc(C3CCCC3)c([C@@H](F)c3ccc(C(F)(F)F)cc3)c(C3CCCCC3)c21	condition met
CC(C)c1nc2c(c(C3CCCCC3)c1[C@@H](O)c1ccc(C(F)(F)F)cc1)[C@@H](O)CC(C)(C)C2 (relative stereo)	condition met
